All figures here come from patent US5614548A.

System: P388 cells
testSummary: Cytostatic activity on P388 cells
Assay type: cell-based
experimentalContext: Mus musculus
measuredMetric: pIC50
Scale: negative log10 of molar concentration, which is what pIC50 denotes.

For P388 cells, give pIC50 of the listed molecule: CCCCCCCCCCCCCCCCCCOCC[N+](C)(C)CCO.[I-] [VIII] 6.38

* * *

Listing of recorded Percent Protein Kinase C Activity Retained by entry.
System: Protein Kinase C
testSummary: Protein Kinase C activity (32P incorporation into histone)
Type: biochemical, human (HL-60 cells)
experimentalContext: 10.0 μM
Provide the measurement as a number trailed by its unit.

Record excerpt, results attached:
- compound: "CCCCCCCCCCCCCCCCOCC(C[N+](C)(C)CCO)OC (stereo not drawn) [H]"
  assaySystem: "Protein Kinase C"
  testResult: "64%"
- compound: "CCCCCCCCCCCCCCCCSCC(C[N+](C)(C)C)OC (stereo not drawn) [D]"
  assaySystem: "Protein Kinase C"
  testResult: "74%"

Next item in the queue.
Output measured Percent Protein Kinase C Activity Retained for this item: COC(COc1cccc2ccccc12)C[N+](C)(C)CCO (stereo not drawn) [E] 89%

* * *

Test system: HIV-1
testSummary: HIV-1 plaque assay, inhibitor added 60 minutes after infection
Type: cell-based, human immunodeficiency virus type 1 (HIV-1)
experimentalContext: Human immunodeficiency virus 1; CEM-SS monolayers, compound from sixty minutes after infection, N = 4; read-out: Inhibitory Concentration50 HIV-1 Plaque Formation
measuredMetric: IC50

Record excerpt, results attached:
- molecule: "CCCCCCCCCCCCCCCCOCC(O)(CO)CCCCCCCC (stereo not drawn)"
  assaySystem: "HIV-1"
  IC50: "> 10 µM"
- molecule: "CCCCCCCCCCCCCCCCCCOCC(COP(=O)([O-])OCC[N+](C)(C)C)OC (racemic) [ET-18-OMe, reference compound]"
  assaySystem: "HIV-1"
  IC50: "1.4 µM"
- molecule: "CCCCCCCCCCCCCCCCSCC(C[N+](C)(C)CCO)OC.[Br-] (racemic)"
  assaySystem: "HIV-1"
  IC50: "0.37 µM"
- molecule: "CCCCCCCCCCCCCCCCSCC(C[N+](C)(C)CCO)OCC (stereo not drawn)"
  assaySystem: "HIV-1"
  IC50: "0.63 µM"
- molecule: "CCCCCCCCCCCCCCCC(=O)OC[C@H](COP(=O)([O-])OCC[N+](C)(C)C)OC(=O)CCCCCCCCCCCCCCC [dipalmitoyl-phosphatidylcholine, reference compound]"
  assaySystem: "HIV-1"
  IC50: "> 1360 µM"

Next item in the queue.
Output measured IC50 for this item: CCCCCCCCCCCCCCCCCCSCC(C[N+](C)(C)CCCO)OC (stereo not drawn) 0.52 µM

* * *

Listing of recorded Percent Protein Kinase C Activity Retained by entry.
Tested on: Protein Kinase C
testSummary: Protein Kinase C activity (32P incorporation into histone)
Format: biochemical, human (HL-60 cells)
experimentalContext: 2.5 μM
Give a bare numeral; the unit % is implied.

- molecule: "COC(COc1cccc2ccccc12)C[N+](C)(C)CCO (stereo not drawn)"
  readoutUnits: "%"
  testResult: 99

Output measured Percent Protein Kinase C Activity Retained for this item: CCCCCCCCCCCCCCCCCCSCC(C[N+](C)(C)CCCO)OC (stereo not drawn) 56

Output measured Percent Protein Kinase C Activity Retained for this item: CCCCCCCCCCCCCCCCSCC(C[N+](C)(C)CCO)OCC (stereo not drawn) 84

* * *

Test system: Protein Kinase C
testSummary: Protein Kinase C activity (32P incorporation into histone)
Type: biochemical, human (HL-60 cells)
experimentalContext: 20.0 μM
Listing of recorded Percent Protein Kinase C Activity Retained by entry.
Give a bare numeral; the unit % is implied.

Record excerpt, results attached:
- compound: "CCCCCCCCCCCCCCCCCC1OCC(C[N+](C)(C)CCCO)O1 (stereo not drawn)"
  testResult: 9
- compound: "CC1(C)OCC(C[N+](C)(C)CCO)O1 (stereo not drawn)"
  testResult: 96

Next item in the queue.
Output measured Percent Protein Kinase C Activity Retained for this item: CCCCCCCCCCCCCCCCOCC(C[N+](C)(C)CCO)OC (stereo not drawn) 42

* * *

Listing of recorded Percent Protein Kinase C Activity Retained by entry.
System: Protein Kinase C
testSummary: Protein Kinase C activity (32P incorporation into histone)
Type: biochemical, human (HL-60 cells)
experimentalContext: 1.25 μM
Provide the measurement as a number trailed by its unit.

Output measured Percent Protein Kinase C Activity Retained for this item: CCCCCCCCCCCCCCCCSCC(C[N+](C)(C)CCO)OCC (stereo not drawn) [B] 92%

* * *

Test system: Protein Kinase C
testSummary: Protein Kinase C activity (32P incorporation into histone)
Format: biochemical, human (HL-60 cells)
experimentalContext: 5.0 μM
Listing of recorded Percent Protein Kinase C Activity Retained by entry.
Give a bare numeral; the unit % is implied.

Record excerpt, results attached:
- compound: "CCCCCCCCCCCCCCCCCC1OCC(C[N+](C)(C)CCCO)O1 (stereo not drawn)"
  testResult: 26
- compound: "CCCCCCCCCCCCCCCCSCC(C[N+](C)(C)CCO)OCC (stereo not drawn)"
  testResult: 70

Output measured Percent Protein Kinase C Activity Retained for this item: CCCCCCCCCCCCCCCCSCC(C[N+](C)(C)C)OC (stereo not drawn) 81

Output measured Percent Protein Kinase C Activity Retained for this item: CCCCCCCCCCCCCCCCSCC(C[N+](C)(C)CCCO)OCC (stereo not drawn) 67

Output measured Percent Protein Kinase C Activity Retained for this item: CCCCCCCCCCCCCCCCOCC(C[N+](C)(C)CCO)OC (stereo not drawn) 87

Output measured Percent Protein Kinase C Activity Retained for this item: CCCCCCCCCCCCCCCCCCSCC(C[N+](C)(C)CCCO)OC (stereo not drawn) 49

Output measured Percent Protein Kinase C Activity Retained for this item: CCCCCCCCCCCCCCCCSCC(C[N+](C)(C)CCO)OC (stereo not drawn) 73

Output measured Percent Protein Kinase C Activity Retained for this item: CC1(C)OCC(C[N+](C)(C)CCO)O1 (stereo not drawn) 87

Output measured Percent Protein Kinase C Activity Retained for this item: COC(COc1cccc2ccccc12)C[N+](C)(C)CCO (stereo not drawn) 83

* * *

System: HL60 human leukemia cell line
testSummary: HL60 cell growth inhibition (trypan blue, 48 h)
Format: cell-based
experimentalContext: Homo sapiens, HL-60, 48 h, HL60, 48 hours; ET-18-OMe reference run in parallel with the analog of the line; read-out: ID50; ET-18-OMe
measuredMetric: IC50 (µM)
Give a bare numeral; the unit µM is implied.

Output measured IC50 for this item: CCCCCCCCCCCCCCCCCCOCC(COP(=O)([O-])OCC[N+](C)(C)C)OC (racemic) [ET-18-OMe, reference compound] 1.7

* * *

Listing of recorded Percent Protein Kinase C Activity Retained by entry.
Test system: Protein Kinase C
testSummary: Protein Kinase C activity (32P incorporation into histone)
Assay type: biochemical, human (HL-60 cells)
experimentalContext: 2.5 μM
Give a bare numeral; the unit % is implied.

Record excerpt, results attached:
- compound: "CCCCCCCCCCCCCCCCSCC(C[N+](C)(C)CCCO)OCC (stereo not drawn)"
  readoutUnits: "%"
  testResult: 64
- compound: "CC1(C)OCC(C[N+](C)(C)CCO)O1 (stereo not drawn)"
  readoutUnits: "%"
  testResult: 84
- compound: "CCCCCCCCCCCCCCCCSCC(C[N+](C)(C)CCO)OC (stereo not drawn)"
  readoutUnits: "%"
  testResult: 90
- compound: "CCCCCCCCCCCCCCCCSCC(C[N+](C)(C)C)OC (stereo not drawn)"
  readoutUnits: "%"
  testResult: 88

For Protein Kinase C, give Percent Protein Kinase C Activity Retained of the listed compound: CCCCCCCCCCCCCCCCCC1OCC(C[N+](C)(C)CCCO)O1 (stereo not drawn) 43

For Protein Kinase C, give Percent Protein Kinase C Activity Retained of the listed compound: CCCCCCCCCCCCCCCCOCC(C[N+](C)(C)CCO)OC (stereo not drawn) 95

* * *

System: Protein Kinase C
testSummary: Protein Kinase C activity (32P incorporation into histone)
Format: biochemical, human (HL-60 cells)
experimentalContext: 10.0 μM
measuredMetric: Percent Protein Kinase C Activity Retained (%)
Give a bare numeral; the unit % is implied.

- compound: "CCCCCCCCCCCCCCCCSCC(C[N+](C)(C)CCO)OCC (stereo not drawn)"
  testResult: 70
- compound: "CC1(C)OCC(C[N+](C)(C)CCO)O1 (stereo not drawn)"
  testResult: 88
- compound: "CCCCCCCCCCCCCCCCSCC(C[N+](C)(C)CCCO)OCC (stereo not drawn)"
  testResult: 60
- compound: "CCCCCCCCCCCCCCCCCCSCC(C[N+](C)(C)CCCO)OC (stereo not drawn)"
  testResult: 39
- compound: "CCCCCCCCCCCCCCCCCC1OCC(C[N+](C)(C)CCCO)O1 (stereo not drawn)"
  testResult: 12

Output measured Percent Protein Kinase C Activity Retained for this item: CCCCCCCCCCCCCCCCSCC(C[N+](C)(C)CCO)OC (stereo not drawn) 60
